# System: U937 cells
# Experiment Summary: U937 cell growth inhibition (direct antitumor action, CellTiterGlo)
# Type: cell-based
# Experimental Setup: U937 cell growth inhibition, 4 days culture
pIC50: −log10 of the molar value.
Readout Label: pIC50

[[record]]
structure_notation = "CCCCCCCCc1cccc(NCC(P(=O)(OCOC(=O)C(C)(C)C)OCOC(=O)C(C)(C)C)P(=O)(OCOC(=O)C(C)(C)C)OCOC(=O)C(C)(C)C)n1"
readout_label = "pIC50"
quantitative_result = 5.52


a. CC(C)(C)C(=O)OCOP(=O)(OCOC(=O)C(C)(C)C)C(CNc1ncccn1)P(=O)(OCOC(=O)C(C)(C)C)OCOC(=O)C(C)(C)C
b. CC(C)(C)C(=O)OCOP(=O)(OCOC(=O)C(C)(C)C)C(CNc1ncccc1O)P(=O)(OCOC(=O)C(C)(C)C)OCOC(=O)C(C)(C)C
Could you tell me which of a and b has the lower pIC50 reading? Answer = label.
b
(b: 5.05, a: 5.62)

Data origin, for the record: patent US10532065B2
